Assay: A quantitative high throughput screen for small molecules that induce DNA re-replication in MCF 10a normal breast cells. Further: nearly all actives have a fitted effect of over 50% in size.
Conditions: MCF 10A DNA re-replication, Hoechst nuclear intensity, 48 h; series mostly up to 46.1 µM
Among all 350,000 compounds or so, about 9,900 (2.8%) were called active. Inconclusive results (about 15%) are left out. The call rests on the fitted dose curve; in most records, active means well fitted activation curve with a large enough effect; inconclusive means small, poorly fitted or top-dose-only effect; inactive means no such curve, though single readings can be large or run the other way. The sample holds actives, similar compounds and a random draw of the others, so the mix is not that of the screen.
In this exercise, the only acceptable responses are active, inactive

## Input Per the assay record, what outcome was assigned to "CC(C)c1cc(N=O)cc(C(C)C)c1O" ?
## Output inactive

## Input Per the assay record, what outcome was assigned to "Cc1ccc(C)c(N2CCN(C(=O)CCc3nc(-c4cccc(C(F)(F)F)c4)no3)CC2)c1" ?
## Output inactive

## Input Per the assay record, what outcome was assigned to "CCOc1cc(C2C(C(=O)OC)=CN(C3CCCC3)C=C2C(=O)OC)cc(Br)c1O" ?
## Output inactive

## Input Per the assay record, what outcome was assigned to "CC(=O)Nc1ccc(NC(=O)COC(=O)c2ccccc2C(=O)c2ccccc2)cc1" ?
## Output inactive

## Input Per the assay record, what outcome was assigned to "O=C(c1cn(-c2ccccc2)nc1-c1cc2ccccc2oc1=O)N1CCOCC1" ?
## Output inactive

## Input Per the assay record, what outcome was assigned to "Cc1ccc(S(=O)(=O)Nc2nc(C)cc(N/N=C/c3ccc(O)cc3)n2)cc1" ?
## Output inactive

## Input Per the assay record, what outcome was assigned to "CC(C)=C(NC(=O)c1ccccc1)C(=O)N/N=C(\C)c1ccccc1O" ?
## Output inactive

## Input Per the assay record, what outcome was assigned to "CC(=O)Nc1ccc(-c2csc(NC=C3C(=O)OC(C)(C)OC3=O)n2)cc1" ?
## Output inactive

## Input Per the assay record, what outcome was assigned to "O=C(CNC(=O)c1cc(S(=O)(=O)N2CCOCC2)ccc1N1CCCC1)Nc1ccc(F)c(F)c1" ?
## Output inactive

## Input Per the assay record, what outcome was assigned to O=C1CC(C(=O)O)NC(=S)N1 (configuration not stated) ?
## Output inactive

## Input Per the assay record, what outcome was assigned to "Cn1nnnc1SCC(=O)Nc1sccc1C(N)=O" ?
## Output inactive

## Input Per the assay record, what outcome was assigned to "CC(=O)Nc1ccc(Nc2cc(C)nc(Nc3ccc(NC(C)=O)cc3)n2)cc1" ?
## Output inactive

## Input Per the assay record, what outcome was assigned to "O=C(Cn1cnc2c(OCc3ccccc3)ncnc21)NCc1nc2ccccc2[nH]1" ?
## Output inactive

## Input Per the assay record, what outcome was assigned to "COc1ccc(C2(c3ccc(OC)cc3)NC(=O)N(CC(=O)Nc3cc(C)on3)C2=O)cc1" ?
## Output inactive

## Input Per the assay record, what outcome was assigned to CC1CCCCN1CC(=O)NCc1ccc2c(c1)OCO2 (configuration not stated) ?
## Output inactive

## Input Per the assay record, what outcome was assigned to CCC(C(=O)N1CCN(S(=O)(=O)c2sc(C(=O)O)c(C)c2C(=O)O)CC1)c1ccccc1 (configuration not stated) ?
## Output inactive

## Input Per the assay record, what outcome was assigned to "Cc1cc(C)n(-c2nnc(N3CCN(c4ccccc4)CC3)nn2)n1" ?
## Output inactive

## Input Per the assay record, what outcome was assigned to O=C(COC(=O)c1ccc(F)cc1)NCC1COc2ccccc2O1 (configuration not stated) ?
## Output inactive

## Input Per the assay record, what outcome was assigned to Cc1cc(NC(=O)C(C)SCC(=O)Nc2cccc(S(=O)(=O)N3CCCCCC3)c2)no1 (configuration not stated) ?
## Output inactive

## Input Per the assay record, what outcome was assigned to "O=C1COc2ccc(C(=O)COC(=O)CCOc3ccccc3)cc2N1" ?
## Output inactive

## Input Per the assay record, what outcome was assigned to "COc1ccc(CCNC(=O)COC(=O)c2cnc(Cl)c(Cl)c2)cc1" ?
## Output inactive

## Input Per the assay record, what outcome was assigned to "CC(=O)Nc1ccc(S(=O)(=O)Nc2nc(-c3ccc(C(C)(C)C)cc3)cs2)cc1" ?
## Output inactive

## Input Per the assay record, what outcome was assigned to "CC(=O)NC(=O)c1ccccc1O" ?
## Output inactive

## Input Per the assay record, what outcome was assigned to "COC(=O)[C@@]1(C)[C@H]2C(=O)N(Cc3ccccc3)C(=O)[C@H]2[C@H]2CN=C(SCC3CC3)N21" ?
## Output inactive

## Input Per the assay record, what outcome was assigned to "NC(=O)c1ccc(NC(=O)COC(=O)c2ccc([N+](=O)[O-])cc2)cc1" ?
## Output inactive

## Input Per the assay record, what outcome was assigned to "COc1ccc(S(=O)(=O)N(C)C[C@H]2Oc3c(NC(=O)Nc4ccc5c(c4)OCO5)cccc3C(=O)N([C@H](C)CO)C[C@@H]2C)cc1" ?
## Output inactive

## Input Per the assay record, what outcome was assigned to CC(CC(=O)O)C(=O)c1ccc(Cl)c([N+](=O)[O-])c1 (configuration not stated) ?
## Output inactive

## Input Per the assay record, what outcome was assigned to "CC(C)OC(=O)CN1C(=O)c2ccccc2C1=O" ?
## Output inactive

## Input Per the assay record, what outcome was assigned to "Cn1c(=O)c2c(ncn2CCc2ccccc2)n(C)c1=O" ?
## Output inactive

## Input Per the assay record, what outcome was assigned to "CC(C)(C)OC(=O)NCCCCCNC(=O)c1nc[nH]c1C(=O)NCc1ccccc1" ?
## Output inactive

## Input Per the assay record, what outcome was assigned to "COc1cccc(NC(=O)CN(C)C(=O)/C=C/c2cn(-c3ccccc3)nc2-c2cccs2)c1" ?
## Output inactive

## Input Per the assay record, what outcome was assigned to "CCOc1ccccc1C1C(C(=O)OC)=CN(C)C=C1C(=O)OC" ?
## Output active

## Input Per the assay record, what outcome was assigned to "CCCCCCCCNS(=O)(=O)CCNC1CCCCC1" ?
## Output inactive

## Input Per the assay record, what outcome was assigned to CC(=O)Nc1ccc(NC(=O)C(C)OC(=O)c2ccccc2C(=O)c2ccc(Cl)c([N+](=O)[O-])c2)cc1 (configuration not stated) ?
## Output active

## Input Per the assay record, what outcome was assigned to "CCCc1nc2c(c(=O)c3ccccc3n2C)c(=O)n1-c1cc(C)cc(C)c1" ?
## Output inactive

## Input Per the assay record, what outcome was assigned to "C/C(=N\NC(=O)c1cccnc1)c1ccc(-c2ccccc2)cc1" ?
## Output inactive

## Input Per the assay record, what outcome was assigned to "O=C(CN1CCN(c2nc(-c3ccccc3)cs2)CC1)NCc1ccc2c(c1)OCO2" ?
## Output active

## Input Per the assay record, what outcome was assigned to "Cc1ccc(NC(=S)NC(=O)c2ccc(-c3ccccc3)cc2)cc1" ?
## Output inactive

## Input Per the assay record, what outcome was assigned to Cn1c(=O)c2c(ncn2CC(COCc2ccccc2Cl)OCc2ccccc2Cl)n(C)c1=O (configuration not stated) ?
## Output active

## Input Per the assay record, what outcome was assigned to "COc1ccc(-c2csc(N3CCN(Cc4ccc5c(c4)OCO5)CC3)n2)cc1" ?
## Output inactive

## Input Per the assay record, what outcome was assigned to "O=C(OCCOc1ccccc1F)c1cc(S(=O)(=O)N2CCOCC2)ccc1F" ?
## Output inactive

## Input Per the assay record, what outcome was assigned to "COc1ccc(Nc2cc(C)nc(-n3nc(C)cc3C)n2)cc1" ?
## Output active

Data credit: PubChem BioAssay AID624296
